system: P. aeruginosa; test: Time-kill assay of GN lysin activity; assay type: cell-based, Pseudomonas aeruginosa; settings: CAA/HuS; lysin 10 μg/mL; T = 0 7.8; buffer control 7.7
The reader will find reported Log10 CFU/mL T = l hr values listed item by item below.
The reply must contain the numeric value and, after it, the unit.

molecule	readoutLabel	observed
GN92: Modified GN4, N-terminal peptide KFFKFFKFFK with linker, SEQ ID NO: 7 (protein) KFFKFFKFFKAGAGAGAGAGAGAGAGASMRTSQRGIDLIKSFEGLRLSAYQDSVGVWTIGYGTTRGVTRYMTITVEQAERMLSNDIQRFEPELDRLAKVPLNQNQWDALMSFVYNLGAANLASSTLLKLLNKGDYQGAADQFPRWVNAGGKRLDGLVKRRAAERALFLEPLS	Log10 CFU/mL T = l hr	6.2 Log10 CFU/mL

Please find the next molecule below.
Field request: Log10 CFU/mL T = l hr | item: GN123: Native lysin, GenBank YP_009217242.1, SEQ ID NO: 27 (protein, Pseudomonas phage PhiPA3) MTLLKKGDKGDAVKQLQQKLKDLGYTLGVDGNFGNGTDTVVRSFQTKMKLSVDGVVGNGTMSTIDSTLAGIKAWKTSVPFPATNKSRAMAMPTLTEIGRLTNVDPKLLATFCSIESAFDYTAKPYKPDGTVYSSAEGWFQFLDATWDDEVRKHGKQYSFPVDPGRSLRKDPRANGLMGAEFLKGNAAILRPVLGHEPSDTDLYLAHFMGAGGAKQFLMADQNKLAAELFPGPAKANPNIFYKSGNIARTLAEVYAVLDAKVAKHRA 6.7 Log10 CFU/mL

Data origin, for the record: patent US20220160843A1
